Target: T1, fragment DIR-II (last 27 amino acids of the sequence encoded by the retained intron of DIR) (human)
T1 construct: also called target fragment DIR-II
T1 peptide: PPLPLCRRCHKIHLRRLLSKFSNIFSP
Experiment: ELISA, DIR-II coated; mAb (1 mg/mL) diluted 1:162k

binder	absorbance at 450 nm
DIR antibody IR-II-4 (antibody, V domains shown, Monoclonal antibody) VH: QVQLQQSGAELMKPGASVKISCKATGYTFSSYWIEWVKQRPGHGLEWIGEILPGSGSTNYNEKFKGKATFTADTSSNTAYMQLNSLTSEDSAVYYCARTDDGYLSYFAMDYWGQGTSVTVSS VL: DILMTQTPASLAVSLGQRATISCKASQSVDYDGDSYMNWYQQKPGQPPKLLIYAASNLESGIPARFSGSGSGTDFTLNIHPVEEEDAATYYCQQSNEDPRTFGGGTKLEIK	0.136 absorbance (450 nm)
DIR antibody IR-II-1 (antibody, V domains shown, Monoclonal antibody) VH: QVQLKESGAELMKPGASVKISCKATGYTFSSYWIEWVKQRPGHGLEWIGEILPGSGTTNYNDKFKGKATFTADTSSNTAYMQLSNLTSEDSAVYYCARSYDGYYVFDYWGQGTTLTVSS VL: DIELTQSPASLAVSLGQRATISCKASQSVDYDGDSYMNWYQQKPGQPPKLLIYAASNLESGIPARFSGSGSGTDFTLNIHPVEEEDAATYYCQQSNEDPRTFGGGTKLEIK	0.109 absorbance (450 nm)
DIR antibody IR-II-10 (A2D10) (antibody, V domains shown, Monoclonal antibody) VH: EVQLQQSGPELVKPGASVKISCKTSGYTFTEYTMHWVKQSHGKSLEWIGGIYPHNGGTNYNQKFKGKATLTVDKSSSTAYMELRSLTSEDSAVYYCTEDLTFDYWGQGTTLTVSS VL: DIQMTQTTSSLSASLGDRVTISCSASQDISNYLNWYQQKPDGTVKLLIYYTSSLHSGVPSRFSGSGSGTDYSLTISNLEPEDIATYHCLQYSKLPFTFGSGTKLEIK	0.0517 absorbance (450 nm)
